conditions: in n-pentanol, 313.15 K
Endpoint Label: solubility (mole fraction)
Could you keep your reply to the number by itself?

I would be grateful if you could share the reported solubility (mole fraction) for "O=Cc1cc(C=O)cc(C=O)c1" .
0.00341

----------
conditions: in acetone, 308.15 K
Endpoint Label: solubility (mole fraction)
Could you keep your reply to the number by itself?

I would be grateful if you could share the reported solubility (mole fraction) for "O=Cc1cc(C=O)cc(C=O)c1" .
0.023

----------
details: in n-pentanol, 318.15 K
Endpoint Label: solubility (mole fraction)
Could you keep your reply to the number by itself?

I would be grateful if you could share the reported solubility (mole fraction) for "O=Cc1cc(C=O)cc(C=O)c1" .
0.0042

----------
details: in 1,4-dioxane, 288.15 K
Endpoint Label: solubility (mole fraction)
Could you keep your reply to the number by itself?

I would be grateful if you could share the reported solubility (mole fraction) for "O=Cc1cc(C=O)cc(C=O)c1" .
0.0135

----------
settings: in sec-butanol, 323.15 K
Endpoint Label: solubility (mole fraction)
Could you keep your reply to the number by itself?

I would be grateful if you could share the reported solubility (mole fraction) for "O=Cc1cc(C=O)cc(C=O)c1" .
0.00254

----------
settings: in water, 323.15 K
Endpoint Label: solubility (mole fraction)
Could you keep your reply to the number by itself?

I would be grateful if you could share the reported solubility (mole fraction) for "O=Cc1cc(C=O)cc(C=O)c1" .
0.000198

----------
settings: in n-pentanol, 298.15 K
Endpoint Label: solubility (mole fraction)
Could you keep your reply to the number by itself?

I would be grateful if you could share the reported solubility (mole fraction) for "O=Cc1cc(C=O)cc(C=O)c1" .
0.00216

----------
settings: in n-butanol, 313.15 K
Endpoint Label: solubility (mole fraction)

I would be grateful if you could share the reported solubility (mole fraction) for "O=Cc1cc(C=O)cc(C=O)c1" .
0.00288

----------
conditions: in n-pentanol, 323.15 K
Endpoint Label: solubility (mole fraction)

I would be grateful if you could share the reported solubility (mole fraction) for "O=Cc1cc(C=O)cc(C=O)c1" .
0.00538

----------
settings: in 1,4-dioxane, 298.15 K
Endpoint Label: solubility (mole fraction)
Could you keep your reply to the number by itself?

I would be grateful if you could share the reported solubility (mole fraction) for "O=Cc1cc(C=O)cc(C=O)c1" .
0.0206

----------
conditions: in methanol, 298.15 K
Endpoint Label: solubility (mole fraction)
Could you keep your reply to the number by itself?

I would be grateful if you could share the reported solubility (mole fraction) for "O=Cc1cc(C=O)cc(C=O)c1" .
0.00691

----------
details: in isopropanol, 298.15 K
Endpoint Label: solubility (mole fraction)
Could you keep your reply to the number by itself?

I would be grateful if you could share the reported solubility (mole fraction) for "O=Cc1cc(C=O)cc(C=O)c1" .
0.00069

----------
settings: in ethanol, 318.15 K
Endpoint Label: solubility (mole fraction)

I would be grateful if you could share the reported solubility (mole fraction) for "O=Cc1cc(C=O)cc(C=O)c1" .
0.00614

----------
details: in n-propanol, 293.15 K
Endpoint Label: solubility (mole fraction)
Could you keep your reply to the number by itself?

I would be grateful if you could share the reported solubility (mole fraction) for "O=Cc1cc(C=O)cc(C=O)c1" .
0.00131

----------
details: in 1,4-dioxane, 318.15 K
Endpoint Label: solubility (mole fraction)
Could you keep your reply to the number by itself?

I would be grateful if you could share the reported solubility (mole fraction) for "O=Cc1cc(C=O)cc(C=O)c1" .
0.0372
